Test system: isolated paced intact rabbit atria
Assay: Cardiac depressant (negative inotropic) effect in isolated paced rabbit atria
Conditions: Oryctolagus cuniculus; rabbit atria paced at 3Hz, 30°C, cumulative dosing; read-out: IC25 (concentration which produces 25% inhibition of isometric force)
measured_property: IC25 (nM)
Quick reminder: number only, in nM, skip the unit.

Q: # lookup: IC25 of CC1=C(C(=O)OCCCCOc2ccccc2)C(c2c(F)c(F)c(F)c(F)c2F)C2=C(CNCC2=O)N1 (stereo not shown)
Result: 1000

Q: # lookup: IC25 of CC1=C(C(=O)OCCOc2ccccc2)C(c2cccc(Cl)c2C)C2=C(CNCC2=O)N1 (stereo not shown)
Result: 1000

Q: # lookup: IC25 of CC1=C(C(=O)OCC2COc3ccccc3O2)C(c2c(F)c(F)c(F)c(F)c2F)C2=C(CNCC2=O)N1 (stereo not shown)
Result: 3200

Q: # lookup: IC25 of COC(COC(=O)C1=C(C)NC2=C(C(=O)CNC2)C1c1cccc(Cl)c1Cl)c1ccccc1 (stereo not shown)
Result: 10000
